pIC50: −log10 of the molar value.
As a worked illustration, we turn to pIC50 data collected for SARS-CoV-2 3CL-protease (Severe acute respiratory syndrome coronavirus 2).

Below: 3 compounds and their reported pIC50.
[
  {
    "SMILES_NOTATION": "CC(C)C[C@@H](C(=O)N1C[C@]2(C[C@H]1C(=O)O)C(=O)Nc1ccc(Cl)cc12)N(C)C(=O)c1cc2c(F)cc(F)cc2[nH]1",
    "PROPERTY_MEASURED": "pIC50",
    "OBSERVED": "< 6.00"
  },
  {
    "SMILES_NOTATION": "C[C@@H]1CCC[C@H](C)N1CCC(=O)N(C)[C@@H](CC(C)(C)F)C(=O)N1C[C@]2(C[C@H]1C#N)C(=O)Nc1ccccc12",
    "PROPERTY_MEASURED": "pIC50",
    "OBSERVED": "> 7.00"
  },
  {
    "SMILES_NOTATION": "CC(C)C[C@@H](C(=O)N1C[C@]2(C[C@H]1C#N)C(=O)Nc1ccccc12)N(C)C(=O)c1c(Cl)cc(F)cc1Cl",
    "PROPERTY_MEASURED": "pIC50",
    "OBSERVED": "> 7.00"
  }
]

Let me check: CCC[C@@H](C(=O)N1C[C@]2(C[C@H]1C#N)C(=O)Nc1ccccc12)N(C)C(=O)c1cc2c(F)cc(F)cc2[nH]1 , system SARS-CoV-2 3CL-protease (Severe acute respiratory syndrome coronavirus 2), measured pIC50 is > 7.00

Let me check: [2H]C([2H])([2H])N(C(=O)[C@@H](O)c1ccccc1)[C@@H](CC(C)(C)C)C(=O)N1C[C@]2(C[C@H]1C#N)C(=O)Nc1ccccc12 , system SARS-CoV-2 3CL-protease (Severe acute respiratory syndrome coronavirus 2), measured pIC50 is > 7.00

Let me check: CC(C)(F)C[C@H](NC(=O)c1cc2ccccn2n1)C(=O)N1C[C@]2(C[C@H]1C#N)C(=O)Nc1ccc(Cl)cc12 , system SARS-CoV-2 3CL-protease (Severe acute respiratory syndrome coronavirus 2), measured pIC50 is 6.00 to 7.00

* * *

- MEASUREMENT_TARGET: SARS-CoV-2 3CL-protease (Severe acute respiratory syndrome coronavirus 2, UniProt P0DTD1)
- ASSAY_SUMMARY: SARS-CoV-2 3C-Like (3CL) Protease Fluorescence Assay (FRET)
- Format: biochemical
- CONDITION_DETAILS: SARS-CoV-2 3CL-protease 10 nM, 30 min preincubation at RT, substrate 40 μM
pIC50: −log10 of the molar value.
PROPERTY_MEASURED: pIC50

[
  {
    "SMILES_NOTATION": "CC(C)C[C@@H](C(=O)N1C[C@]2(C[C@H]1C#N)C(=O)Nc1ccccc12)N(C)C(=O)c1nc2c(F)cc(F)cc2[nH]1",
    "OBSERVED": "> 7.00"
  },
  {
    "SMILES_NOTATION": "CC(C)C[C@@H](C(=O)N1C[C@]2(C[C@H]1C#N)C(=O)Nc1ccccc12)N(C)C(=O)c1cc2c(Cl)c(Cl)ccc2[nH]1",
    "OBSERVED": "> 7.00"
  }
]

Shift focus to the following entry.
Entry CC(C)C[C@@H](C(=O)N1C[C@]2(C[C@H]1C#N)C(=O)Nc1ccccc12)N(C)C(=O)c1cccc2ncc(F)cc12 — recorded pIC50 = > 7.00
